Listed here: molecules with reported GI50 for MV-4-11.
Note: unit nM is implicit; provide only the numeric part.

Observe how each entry below is paired with its result.
COCn1cc(C)c2c1C(c1ccc(Cl)cc1)N(c1cc(C)c3nnn(C)c3n1)C2=O (stereo not shown) [Example 2]; 7.66
Cc1cc(N2C(=O)c3cc(C)n(C)c3C2c2ccc(Cl)cc2)cn(C)c1=O (stereo not shown) [Example 69]; 37.8

Query: I have this molecule here, Cc1cc(N2C(=O)c3cc(-c4ccccn4)n(C)c3C2c2ccc(Cl)cc2)cn(C)c1=O (stereo not shown) [Example 52] , and I need its recorded GI50.
Reply: 872

Query: One more molecule: CC(=O)Nc1cn(C)c2c1C(=O)N(c1cc(C)c3nnc(C)n3c1)C2c1ccc(Cl)cc1 (stereo not shown) [Example 103]
Reply: 19.9

====

These records show log10 of IC50 for BRD4 (Homo sapiens (Human), UniProt O60885).
Remember, log10 of IC50, in nM.

Worked examples follow.
CNC(=O)c1cn(C)c2c1C(=O)N(c1cc(C)c3nnc(C(F)F)n3n1)C2c1ccc(Cl)cc1 (stereo not drawn) [Example 108]; 1.20
Cc1cc(N2C(=O)c3cc(-c4cnc(N(C)C)nc4)n(C)c3C2c2ccc(Cl)cc2)cn(C)c1=O (stereo not drawn) [Example 57]; 1.77

Query: log10 of IC50 lookup needed for Cc1cc(N2C(=O)c3ccn(C(=O)N(C)C)c3C2c2ccc(Cl)cc2)cn2c(C)nnc12 (stereo not drawn) [Example 24] , thanks.
Reply: 1.90

Query: Then what about the compound CCOC(=O)n1c(-c2cccnc2OC)c(C)c2c1C(c1ccc(Cl)cc1)N(c1cc(C)c3nnc(C)n3c1)C2=O (stereo not drawn) [Example 124] ?
Reply: 1.04

Query: Now the compound Cc1cc2c(n1C)C(c1ccc(Cl)cc1)N(c1cc(Cl)c(=O)n(C)c1)C2=O (stereo not drawn) [Example 74]
Reply: 1.36

Query: Also Cc1cn(C)c2c1C(=O)N(c1cc(C)c3nnc(C)n3c1)C2c1ccc(Cl)cc1 (stereo not drawn) [Example 33] , if possible.
Reply: 1.49

Query: Please give the result for Cc1cn(CCN(C)C)c2c1C(=O)N(c1cc(C)c3nnc(C)n3c1)C2c1ccc(Cl)cc1 (stereo not drawn) [Example 128] too.
Reply: 1.65

====

Values of GI50 reported for MV-4-11 appear below.
Answer format: numeric, µM implied, no suffix.

Use the examples below as a reference point.
Cc1cc(N2C(=O)c3c(C4CC4)cn(C4COC4)c3C2c2ccc(Cl)cc2)cn2c(C)nnc12 (stereo not shown); 0.00286
Cc1cc(N2C(=O)c3c(C4CC4)cn(C4CN(C)C4)c3C2c2ccc(Cl)cc2)nc2c1nnn2C (stereo not shown); 0.000522
Cc1cc(N2C(=O)c3cc(-c4ccn(C)c(=O)c4)n(C)c3C2c2ccc(Cl)cc2)cn(C)c1=O (stereo not shown); 0.0559
COc1ncccc1-c1cc2c(n1C)C(c1ccc(Cl)cc1)N(c1cc(C)c3nnc(C)n3c1)C2=O (stereo in doubt) [Example 135]; 0.00609

Query: Please report the recorded GI50 for Cn1c(-c2ccc(=O)n(C)c2)cc2c1C(c1ccc(Cl)cc1)N(c1cc(Cl)c(=O)n(C)c1)C2=O (stereo not shown) .
Reply: 0.227

Query: Can you handle CNC(=O)n1ccc2c1C(c1ccc(Cl)cc1)N(c1cc(C)c3nnc(C)n3c1)C2=O (stereo not shown) next?
Reply: 0.029

Query: # iterate: Cc1cc(N2C(=O)c3ccn(C4CC4)c3C2c2ccc(Cl)cc2)cn(C)c1=O (stereo not shown)
Reply: 0.0616
